Tested on: MDA-MB-231 human breast cancer cells
Assay: Cell proliferation assay (CellTiter-Glo, 72 hours treatment)
Type: cell-based
Conditions: Homo sapiens; MDA-MB-231 cells, 72 hours at 37° C., CellTiter-Glo; read-out: MDA-MB-231 cell proliferation assay (IC50)
pIC50: −log10 of the molar value.
Measured pIC50 values are reported for all entries that follow.

Answered examples (5):
1) COc1cncc2c1[C@]1(O)[C@H](O)[C@H](CN(C)C)[C@@H](c3ccccc3)[C@]1(c1ccc(C(F)(F)F)cc1)O2 (single isomer, unassigned) [107F] = 6.00 to 7.00
2) COC(=O)[C@@]12C[C@@H]1[C@@]1(O)c3ncc(Cl)cc3O[C@@]1(c1ccc(Br)cc1)[C@@H]2c1ccccc1 (racemic) [24F] = < 6.00
3) COc1cncc2c1[C@]1(O)[C@H](O)[C@H](C(=O)N3CC4(COC4)C3)[C@@H](c3ccccc3)[C@]1(c1ccc(Br)cc1)O2 (racemic) [235F] = > 7.00
4) COc1nc(Cl)cc2c1[C@]1(O)[C@H](O)[C@H](C(=O)N3CCC34CC4(F)F)[C@@H](c3ccccc3)[C@]1(c1ccc(Br)cc1)O2 (mixture of isomers) [219F] = > 7.00
5) COc1nc(C#N)cc2c1[C@]1(O)[C@H](O)[C@H](CN3CC(F)(F)C3)[C@@H](c3ccccc3)[C@]1(c1ccc(C#N)cc1)O2 [288F] = > 7.00

Memo: N#Cc1ccc([C@@]23Oc4cc(Cl)cnc4[C@]2(O)[C@@H](C#N)[C@H](C(N)=O)[C@H]3c2ccccc2)cc1 (racemic) [52F] , reported pIC50: 6.00 to 7.00

Memo: N#Cc1ccc([C@@]23Oc4cc(Cl)cnc4[C@]2(O)[C@H](O)[C@H](c2ncco2)[C@H]3c2ccccc2)cc1 (racemic) [26F] , reported pIC50: 6.00 to 7.00

Memo: COc1ccc(Cn2cc3c(n2)[C@]2(O)[C@H](O)[C@H](C(=O)N(C)C)[C@@H](c4ccccc4)[C@]2(c2ccc(C#N)cc2)O3)cc1 (racemic) [99F] , reported pIC50: < 6.00

Memo: CCN(CC)C[C@H]1[C@@H](O)[C@@]2(O)c3c(cc(C#N)nc3OC)O[C@@]2(c2ccc(Br)cc2)[C@@H]1c1ccccc1 (racemic) [159Fa] , reported pIC50: > 7.00

Memo: N#Cc1ccc([C@@]23Oc4cc(Cl)cnc4[C@]2(O)[C@H](CO)C[C@H]3c2ccccc2)cc1 (racemic) [168F] , reported pIC50: < 6.00

Memo: COc1cncc2c1[C@]1(O)[C@H](O)[C@H](C(=O)NC3COC3)[C@@H](c3ccccc3)[C@]1(c1ccc(Br)cc1)O2 (racemic) [239F] , reported pIC50: > 7.00

Memo: COC(=O)C1(F)[C@@H](O)[C@@]2(O)c3ncc(Cl)cc3O[C@@]2(c2ccc(C#N)cc2)[C@@H]1c1ccccc1 (mixture of isomers) [59F] , reported pIC50: < 6.00

Memo: CCN(CC)C[C@H]1[C@@H](O)[C@@]2(O)c3c(cc(OC)nc3OC)O[C@@]2(c2ccc(C#N)cc2)[C@@H]1c1ccccc1 (racemic) [232F] , reported pIC50: > 7.00
